Entry source: patent US6646137B1

Molecular target: human GnRH receptor (Homo sapiens)
Construct: The cDNA for the human GnRH receptor is cloned into the plasmid expression vector, pcDNA 3; expressed in transfected cells; host or cells: HEK 293 cells, stably transfected (pcDNA 3); membrane preparation
Sequence (P30968 1-328): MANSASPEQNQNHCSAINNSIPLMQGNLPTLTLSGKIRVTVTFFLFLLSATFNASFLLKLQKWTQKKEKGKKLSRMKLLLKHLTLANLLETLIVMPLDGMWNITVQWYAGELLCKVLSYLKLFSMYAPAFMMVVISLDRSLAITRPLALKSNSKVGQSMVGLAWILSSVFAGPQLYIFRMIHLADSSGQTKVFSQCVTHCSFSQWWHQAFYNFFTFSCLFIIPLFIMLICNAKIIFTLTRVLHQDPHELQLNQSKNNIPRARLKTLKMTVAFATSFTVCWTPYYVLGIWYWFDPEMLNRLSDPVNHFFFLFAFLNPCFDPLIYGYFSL
Assay: GnRH receptor competitive radioligand binding assay (125I-GnRH-A, HEK 293 cell membranes)
Conditions: compound at 10 μM; average of 1st and 2nd test; read-out: Average % Remaining (percent of specific binding remaining)
readout: remaining activity at 10 µM (%)
// note: answer is a bare numeric in %

Solved entries (count: 3):
{"molecule": "CC(C)(C)c1ccc(CN(CC2CCC(CNC(=N)N)CC2)C(=O)C2CCCC2)cc1 (stereo not shown)", "assayedSystem": "human GnRH receptor (Homo sapiens)", "remaining activity at 10 µM (%)": 58}
{"molecule": "CC(C)(C)c1ccc(CN(CC2CCCC(CNC(=N)N)C2)C(=O)c2cccs2)cc1 (stereo not shown)", "assayedSystem": "human GnRH receptor (Homo sapiens)", "remaining activity at 10 µM (%)": 50}
{"molecule": "CC(C)(C)c1ccc(CN(CC2CCCC(CNC(=N)N)C2)C(=O)c2cccc3ccccc23)cc1 (stereo not shown)", "assayedSystem": "human GnRH receptor (Homo sapiens)", "remaining activity at 10 µM (%)": 45}

Let us move to another entry and its remaining activity at 10 µM.
Ask: Query for human GnRH receptor (Homo sapiens): what remaining activity at 10 µM does the record show for `Cc1cc2c(cc1CN(CCCCNC(=N)N)C(=O)c1ccc(Cl)nc1)C(C)(C)CCC2(C)C` ?
Result: 57

###

molecular target: human GnRH receptor (Homo sapiens); construct: The cDNA for the human GnRH receptor is cloned into the plasmid expression vector, pcDNA 3; expressed in transfected cells; host or cells: HEK 293 cells, stably transfected (pcDNA 3); membrane preparation; assay: GnRH receptor competitive radioligand binding assay (125I-GnRH-A, HEK 293 cell membranes); conditions: compound at 10 μM; crude compounds; 125I-GnRH-A; lower value = higher inhibition; read-out: % Remaining 1st Test (percent of specific binding remaining)
readout: remaining activity at 10 µM (%)
Form entry: value (%) — number only.

Known remaining activity at 10 µM results, listed for orientation:
{"compound": "Cc1cc2c(cc1CN(CC1CCC(CNC(=N)N)CC1)C(=O)c1ccco1)C(C)(C)CCC2(C)C (stereo not drawn)", "uom": "%", "remaining activity at 10 µM": -4}
{"compound": "CN(C)CCCOc1ccc(CN(Cc2ccc(CNC(=N)N)cc2)C(=O)c2ccc3ccccc3c2)cc1", "uom": "%", "remaining activity at 10 µM": 58}
{"compound": "Cc1cc2c(cc1CN(CCCCNC(=N)N)C(=O)c1ccc3ccccc3c1)C(C)(C)CCC2(C)C", "uom": "%", "remaining activity at 10 µM": 53}

Ask: If you can, please state the reported remaining activity at 10 µM value of N=C(N)NCC1CCCC(CN(Cc2ccc3c(c2)OCCO3)C(=O)c2cccc3ccccc23)C1 (stereo not drawn) .
Result: 50

Ask: Request: Cc1cc2c(cc1CN(CC1CCC(CNC(=N)N)CC1)C(=O)Cc1ccccc1)C(C)(C)CCC2(C)C (stereo not drawn)
Result: 66

Ask: COC(=O)CCCCCC(=O)N(Cc1cc2c(cc1C)C(C)(C)CCC2(C)C)CC1CCC(CNC(=N)N)CC1 (stereo not drawn) ?
Result: 52
